# Assay Info: NCI Yeast Anticancer Drug Screen. Data for the bub3 strain (AID 167)
# Experimental Parameters: S. cerevisiae bub3 mutant strain, at 50.0 µM (retest, dose inferred, filed as 5.0)
Compounds without any hit were thinned out: in the full panel of roughly 79,000, 15% have a hit. Active and inactive are the calls of the source. No stated cut-off is given here; in the data, active means growth inhibition above about 70%; inactive means the rest.
Your response should consist of one outcome taken from active, inactive

# count of solved cases: 4
| Compound | Label Value |
| --- | --- |
| Cc1cc(NC(=S)SC(C)C)ccc1Br | active |
| Oc1[nH]c2ccccc2c1N=NC(=S)NCc1ccccn1 | active |
| CCc1c(C(=O)OC)c(C(=O)OC)c(-c2ccccc2)n1CCn1c(CC)c(C(=O)OC)c(C(=O)OC)c1-c1ccccc1 | active |
| COc1ccc(-c2c(CO)cc(OC)c(OC)c2OC)c(CO)c1 | inactive |

Now examine the next entry.
# fetch the recorded call for CC(=O)Nc1ccc(N=C2c3ccccc3-c3ccc(NC(C)=O)cc32)cc1 here
inactive
